measurementName: melting point (°C)
The reply should be a number in °C, with the unit left off.

COc1ccccc1CNc1ccc2cc(Nc3cc(C)on3)ccc2n1	132

Could you now look at the following compound, please?
Q: Entry under review: CC(=O)OC1CC2CCC3C4CC(N5CCCCC5)C(=O)C4(C)CCC3C2(C)CC1N1CCCCC1 (stereo not given) . Reported melting point?
A: 154

* * *

Recorded measurements of melting point, one per entry

COc1ccc2c(c1)C(CCC(C)C)(C(F)(F)F)OCC(=O)N2 (stereo not given)	123 to 130 °C

Q: Entry under review: CC(CN(C)C)N1c2ccccc2Sc2ccc(C(=O)NCc3cccs3)cc21 (racemic) . Reported melting point?
A: 135 °C

Q: State the recorded melting point for this entry: O=C(O)C1C2CCC(C2)C1NS(=O)(=O)c1ccccc1 (stereo not given)
A: 157 to 159 °C

Q: Report melting point for CS(=O)(=O)c1ccc(-n2nc(C(F)(F)F)cc2-c2ccc(-c3cscn3)cc2)cc1 please.
A: 168 to 170 °C

Q: Given C[C@]1(N2C(=O)c3cccc(Nc4ccc5c(c4)CCC5)c3C2=O)CCC(=O)NC1=O , state its recorded melting point.
A: 200 to 202 °C
